# experimental-system: p110 alpha (Homo sapiens (Human), UniProt P42336)
# Sequence (P42336 whole entry, canonical isoform): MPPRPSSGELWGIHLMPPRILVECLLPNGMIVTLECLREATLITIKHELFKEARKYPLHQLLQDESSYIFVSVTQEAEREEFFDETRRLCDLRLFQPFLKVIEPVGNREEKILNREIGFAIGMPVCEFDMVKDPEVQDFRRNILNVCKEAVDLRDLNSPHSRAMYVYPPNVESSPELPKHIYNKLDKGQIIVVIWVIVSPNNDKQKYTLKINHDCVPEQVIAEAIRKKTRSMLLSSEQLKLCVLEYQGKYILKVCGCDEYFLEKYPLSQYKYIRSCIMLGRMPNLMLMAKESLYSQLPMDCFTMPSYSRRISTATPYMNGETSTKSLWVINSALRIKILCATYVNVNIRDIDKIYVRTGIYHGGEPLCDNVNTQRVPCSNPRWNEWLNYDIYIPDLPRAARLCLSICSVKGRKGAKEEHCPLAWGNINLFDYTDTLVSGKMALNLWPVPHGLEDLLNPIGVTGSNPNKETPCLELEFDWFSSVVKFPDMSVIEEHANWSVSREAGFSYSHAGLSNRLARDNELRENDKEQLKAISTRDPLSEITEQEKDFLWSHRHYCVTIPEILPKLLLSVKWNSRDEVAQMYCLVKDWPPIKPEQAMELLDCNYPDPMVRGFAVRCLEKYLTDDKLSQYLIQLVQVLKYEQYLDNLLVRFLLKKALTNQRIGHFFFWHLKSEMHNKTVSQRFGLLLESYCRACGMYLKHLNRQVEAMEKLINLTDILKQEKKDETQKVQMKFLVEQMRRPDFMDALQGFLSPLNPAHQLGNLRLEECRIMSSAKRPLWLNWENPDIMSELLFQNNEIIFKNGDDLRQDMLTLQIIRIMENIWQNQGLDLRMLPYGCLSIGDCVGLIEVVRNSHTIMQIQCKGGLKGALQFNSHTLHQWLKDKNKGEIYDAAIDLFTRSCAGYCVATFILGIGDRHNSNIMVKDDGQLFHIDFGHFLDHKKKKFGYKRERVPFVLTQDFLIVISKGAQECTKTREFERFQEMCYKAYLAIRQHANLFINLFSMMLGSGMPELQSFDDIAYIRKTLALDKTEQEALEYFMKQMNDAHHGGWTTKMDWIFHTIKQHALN
# Sequence (P27986 whole entry partner, canonical isoform): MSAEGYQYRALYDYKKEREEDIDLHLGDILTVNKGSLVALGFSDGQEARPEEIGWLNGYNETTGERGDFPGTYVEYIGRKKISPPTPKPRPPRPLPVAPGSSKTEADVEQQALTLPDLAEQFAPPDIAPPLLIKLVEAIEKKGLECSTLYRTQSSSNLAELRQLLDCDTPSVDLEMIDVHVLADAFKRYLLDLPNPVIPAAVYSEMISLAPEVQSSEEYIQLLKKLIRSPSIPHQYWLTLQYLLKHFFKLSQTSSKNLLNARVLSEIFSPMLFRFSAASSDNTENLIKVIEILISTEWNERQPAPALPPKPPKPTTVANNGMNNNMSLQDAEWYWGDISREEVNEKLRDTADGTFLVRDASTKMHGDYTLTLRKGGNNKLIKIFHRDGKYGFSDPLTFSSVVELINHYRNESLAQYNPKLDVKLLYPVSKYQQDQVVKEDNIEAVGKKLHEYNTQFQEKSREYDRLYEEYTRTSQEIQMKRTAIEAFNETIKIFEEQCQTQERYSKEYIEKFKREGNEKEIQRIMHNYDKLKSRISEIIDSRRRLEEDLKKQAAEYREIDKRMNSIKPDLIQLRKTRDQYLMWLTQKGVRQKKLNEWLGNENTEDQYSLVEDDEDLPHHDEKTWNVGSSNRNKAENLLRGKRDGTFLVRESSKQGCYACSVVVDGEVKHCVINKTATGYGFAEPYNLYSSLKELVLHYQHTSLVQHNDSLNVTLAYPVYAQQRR
# protocol-details: PI3K isoform inhibition assay, p110 alpha (for alpha/delta selectivity)
# study-conditions: ratio of biochemical IC50 values
quantity: IC50 p110 alpha/IC50 p110 delta

| molecule | IC50 p110 alpha/IC50 p110 delta |
| --- | --- |
| Cc1nc(-c2cn3c(n2)-c2ccc(N4CCCC4C4CCCN(C)C4)cc2OCC3)n(C(C)C)n1 (centres unmarked) [Example 322] | 31.9 |
| CCN(CC)C1CCOC(c2c(-c3ccc4c(c3)OCCn3cc(-c5nc(C)nn5C(C)C)nc3-4)cnn2C)C1 (centres unmarked) [Example 339] | 61.5 |

P: Cc1nc(-c2cn3c(n2)-c2ccc(-c4cnn(C(C)C)c4CN4CCN(C(C)(C)C)CC4)cc2OCC3)n(C(C)C)n1 [Example 277]
Q: Cc1nc(-c2cn3c(n2)-c2ccc(-c4cnn(C)c4C4CC(N(C)C(C)C)CCO4)cc2OCC3)n(C(C)C)n1 (centres unmarked) [Example 344]
R: Cc1nc(-c2cn3c(n2)-c2ccc(OC4(c5ccccc5)CN(C(C)C)C4)cc2OCC3)n(C(C)C)n1 [Example 275]
S: Cc1cc2c(cc1-c1ccnn1C1CCN(C)CC1)OCCn1cc(-c3ncnn3C(C)C)nc1-2 [Example 264]
T: Cc1nc(-c2cn3c(n2)-c2cc(-c4ccnn4C4CCCN(C(C)(C)CO)C4)c(F)cc2OCC3)n(C(C)C)n1 (centres unmarked) [Example 353]
List the 5 entries from lowest IC50 p110 alpha/IC50 p110 delta to highest IC50 p110 alpha/IC50 p110 delta value. Submit the labels in the order that the ranking request calls for.
S, R, P, Q, T

a: Cc1nc(-c2cn3c(n2)-c2cc([C@H](C)N4CCN(C(C)C)CC4)c(F)cc2OCC3)n(C(C)C)n1 [Example 340]
b: Cc1nc(-c2cn3c(n2)-c2cc(C(C)N4CCN(C5COC5)CC4)c(C)cc2OCC3)n(C(C)C)n1 (centres unmarked) [Example 345]
c: COc1cc2c(cc1[C@@H](C)N1CCN(C(C)(C)C)CC1)-c1nc(-c3nc(C)nn3C(C)C)cn1CCO2 [Example 368]
d: Cc1nc(-c2cn3c(n2)-c2ccc(N4CCCC45CCCN(C)C5)cc2OCC3)n(C(C)C)n1 (centres unmarked) [Example 320]
List the 4 entries from lowest IC50 p110 alpha/IC50 p110 delta to highest IC50 p110 alpha/IC50 p110 delta value. Submit the labels in the order that the ranking request calls for.
b, a, d, c
(b: 14.3, a: 25.8, d: 54.6, c: 92.4)

P: Cc1nc(-c2cn3c(n2)-c2ccc(N4CCCC4CN(C)C)cc2OCC3)n(C(C)C)n1 (centres unmarked) [Example 348]
Q: Cc1nc(-c2cn3c(n2)-c2cc([C@@H](C)N4CCN(C(C)(C)CO)CC4)ncc2OCC3)n(C(C)C)n1 [Example 365]
Form field 'greater IC50 p110 alpha/IC50 p110 delta' accepts P or Q ; which applies? Let me know the label of the one you choose.
Q
(Q: 83.2, P: 31.4)

P: Cc1nc(-c2cn3c(n2)-c2cc(-c4cnn(C)c4C4CC(N(C)C)CCO4)c(F)cc2OCC3)n(C(C)C)n1 (centres unmarked) [Example 354]
Q: Cc1nc(-c2cn3c(n2)-c2cc([C@H](C)N4CCN(CC(C)(C)O)CC4)c(F)cc2OCC3)n(C(C)C)n1 [Example 336]
Form field 'greater IC50 p110 alpha/IC50 p110 delta' accepts P or Q ; which applies? Let me know the label of the one you choose.
Q

P: CCN(CC)C1CCOC(c2c(-c3ccc4c(c3)OCCn3cc(-c5nc(C)nn5C(C)C)nc3-4)cnn2C)C1 (centres unmarked) [Example 341]
Q: CCN1CCN(C(C)c2cc3c(cc2F)OCCn2cc(-c4nc(C)nn4C(C)C)nc2-3)CC1 (centres unmarked) [Example 374]
R: CCN(CC)C1CCOC(c2c(-c3ccc4c(c3)OCCn3cc(-c5nc(C)nn5C(C)C)nc3-4)cnn2C)C1 (centres unmarked) [Example 333]
S: COc1cc2c(cc1[C@H](C)N1CCN(C(C)(C)C)CC1)-c1nc(-c3nc(C)nn3C(C)C)cn1CCO2 [Example 371]
List the 4 entries from lowest IC50 p110 alpha/IC50 p110 delta to highest IC50 p110 alpha/IC50 p110 delta value. Submit the labels in the order that the ranking request calls for.
S, Q, R, P

A: Cc1nc(-c2cn3c(n2)-c2ccc(-c4ccnn4C4CCCN(C5(C)COC5)C4)cc2OCC3)n(C(C)C)n1 (centres unmarked) [Example 285]
B: Cc1nc(-c2cn3c(n2)-c2ccc(OC4(CC5CC5)CN(C(C)C)C4)cc2OCC3)n(C(C)C)n1 [Example 283]
Form field 'greater IC50 p110 alpha/IC50 p110 delta' accepts A or B ; which applies? Let me know the label of the one you choose.
B

P: Cc1nc(-c2cn3c(n2)-c2ccc(N4CCC4C4CCN(C(C)C)CC4)cc2OCC3)n(C(C)C)n1 (centres unmarked) [Example 293]
Q: CC(C)n1ncnc1-c1cn2c(n1)-c1ccc(-c3ccccc3S(N)(=O)=O)cc1OCC2 [Example 109]
Form field 'greater IC50 p110 alpha/IC50 p110 delta' accepts P or Q ; which applies? Let me know the label of the one you choose.
Q
(Q: 17.3, P: 10.3)

1: Cc1nc(-c2cn3c(n2)-c2ccc(OC4CC(C)CN(C(C)C)C4)cc2OCC3)n(C(C)C)n1 (centres unmarked) [Example 260]
2: Cc1nc(-c2cn3c(n2)-c2ccc(-c4cn[nH]c4C4CCCN(C(C)C)C4)cc2OCC3)n(C(C)C)n1 (centres unmarked) [Example 360]
Form field 'greater IC50 p110 alpha/IC50 p110 delta' accepts 1 or 2 ; which applies? Let me know the label of the one you choose.
2
(2: 24, 1: 12.8)
